These entries and their values trace back to patent US8399502B2.

Property: MIC; scope: individual compounds
Tested on: Burkholderia pseudomallei (BP; Gram-negative)
protocolDetails: microbe, parasite or virus in culture
Assay type: cell-based
conditionInfo: read-out: MIC BP

| compound | unitOfMeasurement | comparisonOperator | MIC |
| --- | --- | --- | --- |
| CNCCOc1c2[nH]c3ccc(F)cc3c2cc2c1[nH]c1ccc(F)cc12 | µg/mL | = | 16 |
| CC/N=C(/NCCCOc1c2[nH]c3ccc(F)cc3c2cc2c1[nH]c1ccc(F)cc12)NCCCN(C)C | µg/mL | = | 8 |
| CN(C)CC#Cc1c2[nH]c3ccc(F)cc3c2cc2c1[nH]c1ccc(F)cc12 [drawing 210] | µg/mL | > | 8 |
| Nc1nnn(CCCOc2c3[nH]c4ccc(Cl)cc4c3cc3c2[nH]c2ccc(Cl)cc23)n1 | µg/mL | > | 8 |
| N=C(N)NCCCOc1c2[nH]c3ccc(Cl)cc3c2cc2c1[nH]c1ccc(Cl)cc12 [drawing 217] | µg/mL | = | 2 |
| Clc1ccc2[nH]c3c(OCCCNCc4c[nH]c5ccccc45)c4[nH]c5ccc(Cl)cc5c4cc3c2c1 | µg/mL | > | 8 |
| Clc1ccc2[nH]c3c(OCCCNCc4ccc[nH]4)c4[nH]c5ccc(Cl)cc5c4cc3c2c1 | µg/mL | > | 8 |
| Clc1ccc2[nH]c3c(OCCCc4nnn[nH]4)c4[nH]c5ccc(Cl)cc5c4cc3c2c1 | µg/mL | > | 8 |
| Fc1ccc2[nH]c3c(OC4CCNCC4)c4[nH]c5ccc(F)cc5c4cc3c2c1 | µg/mL | = | 8 |
| Cc1c2[nH]c3ccc(F)cc3c2cc2c1[nH]c1ccc(F)cc12 | µg/mL | > | 16 |
| Clc1ccc2[nH]c3c(OCC4CCNCC4)c4[nH]c5ccc(Cl)cc5c4cc3c2c1 | µg/mL | > | 8 |
| Fc1ccc2[nH]c3c(O[C@@H]4CCNC4)c4[nH]c5ccc(F)cc5c4cc3c2c1 [drawing 253] | µg/mL | = | 4 |
| Fc1ccc2[nH]c3c(O[C@H]4CCNC4)c4[nH]c5ccc(F)cc5c4cc3c2c1 [drawing 254] | µg/mL | = | 4 |
| CN(C)CCOc1c2[nH]c3ccc(F)cc3c2cc2c1[nH]c1ccc(F)cc12 [drawing 195] | µg/mL | = | 8 |
| Clc1ccc2[nH]c3c(OCCCNCc4ncc[nH]4)c4[nH]c5ccc(Cl)cc5c4cc3c2c1 | µg/mL | > | 8 |
| CC/N=C(/NCCCOc1c2[nH]c3ccc(Cl)cc3c2cc2c1[nH]c1ccc(Cl)cc12)NCCCN(C)C | µg/mL | = | 4 |
| CCOC(=O)c1ccc2[nH]c3c(OCCN)c4[nH]c5ccc(C(=O)OCC)cc5c4cc3c2c1 | µg/mL | > | 8 |
| NCCCOc1c2[nH]c3ccc(Cl)cc3c2cc2c1[nH]c1ccc(Cl)cc12 | µg/mL | = | 8 |
| OC1CCN(CCCOc2c3[nH]c4ccc(F)cc4c3cc3c2[nH]c2ccc(F)cc23)C1 (stereo not shown) | µg/mL | = | 8 |
| NCCOc1c2[nH]c3ccc(F)cc3c2cc2c1[nH]c1ccc(F)cc12 | µg/mL | = | 16 |
| NCCCOc1c2[nH]c3ccc(F)cc3c2cc2c1[nH]c1ccc(F)cc12 | µg/mL | = | 8 |
| COc1c2[nH]c3ccc(F)cc3c2c(N2CCCC2)c2c1[nH]c1ccc(F)cc12 | µg/mL | > | 16 |
| Clc1ccc2[nH]c3c(OCCC4CCNCC4)c4[nH]c5ccc(Cl)cc5c4cc3c2c1 | µg/mL | > | 8 |
| Fc1ccc2[nH]c3c(OC4CCNC4)c4[nH]c5ccc(F)cc5c4cc3c2c1 (stereo not shown) | µg/mL | = | 4 |
| Clc1ccc2[nH]c3c(O[C@@H]4CCNC4)c4[nH]c5ccc(Cl)cc5c4cc3c2c1 | µg/mL | > | 8 |
| OC1CCN(CCCOc2c3[nH]c4ccc(Cl)cc4c3cc3c2[nH]c2ccc(Cl)cc23)CC1 [drawing 229] | µg/mL | > | 8 |
| N=C(N)NCCCOc1c2[nH]c3ccc(F)cc3c2cc2c1[nH]c1ccc(F)cc12 [drawing 232] | µg/mL | = | 4 |
| Clc1ccc2[nH]c3c(OC4CCNC4)c4[nH]c5ccc(Cl)cc5c4cc3c2c1 (stereo not shown) | µg/mL | = | 4 |
| Nc1nnnn1CCCOc1c2[nH]c3ccc(Cl)cc3c2cc2c1[nH]c1ccc(Cl)cc12 | µg/mL | > | 8 |
| Nc1nnc(N)n1CCCOc1c2[nH]c3ccc(Cl)cc3c2cc2c1[nH]c1ccc(Cl)cc12 | µg/mL | > | 8 |
| NCCOc1c2[nH]c3ccc(Cl)cc3c2cc2c1[nH]c1ccc(Cl)cc12 | µg/mL | = | 8 |
| Fc1ccc2[nH]c3c(OCCN4CCCC4)c4[nH]c5ccc(F)cc5c4cc3c2c1 | µg/mL | > | 16 |
| CN(C)CCOc1c2[nH]c3ccc(Cl)cc3c2cc2c1[nH]c1ccc(Cl)cc12 | µg/mL | = | 16 |
| CN(C)CCOc1c2[nH]c3cc(F)ccc3c2cc2c1[nH]c1cc(F)ccc12 | µg/mL | > | 8 |
| N[C@H]1CC[C@@H](Oc2c3[nH]c4ccc(F)cc4c3cc3c2[nH]c2ccc(F)cc23)CC1 | µg/mL | > | 8 |
| CN(C)CCCc1c2[nH]c3ccc(F)cc3c2cc2c1[nH]c1ccc(F)cc12 | µg/mL | > | 16 |
| Fc1ccc2[nH]c3c(OCCCn4cncn4)c4[nH]c5ccc(F)cc5c4cc3c2c1 [drawing 231] | µg/mL | > | 8 |
